target: UniProt Q12809; assay: Displacement of [3H]-dofetilide from human ERG at 10 uM relative to control; details: probe [3H]-dofetilide
Kindly return Criterion met if reported inhibition at 10 µM is no lower than 8%; return Criterion not met if it is lower.

[
  {
    "smilesString": "O=C(Cc1ccccc1)N1CCN(c2ccc3nncn3n2)CC1",
    "class": "Criterion not met"
  }
]

Decide: is the reported value of inhibition at 10 µM for O=C(Cc1ccc(Cl)cc1)N1CCN(c2ccc3nncn3n2)CC1 equal to or greater than 8%? Criterion not met

Decide: is the reported value of inhibition at 10 µM for O=C(Nc1ccc(Cl)c(Cl)c1)N1CCN(c2ccc3nncn3n2)CC1 equal to or greater than 8%? Criterion met

Decide: is the reported value of inhibition at 10 µM for O=C(Cc1ccc(Cl)c(Cl)c1)N1CC=C(c2ccc3nncn3n2)CC1 equal to or greater than 8%? Criterion met

Decide: is the reported value of inhibition at 10 µM for O=C(Cc1ccc(Cl)c(Cl)c1)N1CCN(c2ccc3nncn3n2)CC1 equal to or greater than 8%? Criterion met

Decide: is the reported value of inhibition at 10 µM for O=C(Nc1ccc(Cl)c(Cl)c1)N1CC=C(c2ccc3nncn3n2)CC1 equal to or greater than 8%? Criterion met

---

system: MDR1 (P-gp); assay: Efflux ratio of apparent permeability across basolateral to apical side over apical to basolateral side in […] cells at 10 uM after 2 hrs; assay type: ADME, cell-based; settings: MDCK-MDR1
measurementType: efflux ratio at 2 h, 10 µM
Just the number, please, no unit attached.

Specify efflux ratio at 2 h, 10 µM for O=C(Nc1ccc(Cl)c(Cl)c1)N1CC=C(c2ccc3nncn3n2)CC1 and stop. 6.5

---

experiment: Efflux ratio of apparent permeability across basolateral to apical side over apical to basolateral side in […] cells at 10 uM after 2 hrs; assay type: ADME, cell-based; conditions: mdckii-mdr1, 2 h, 10 µM
measurementType: Ratio
Just the number, please, no unit attached.

[
  {
    "smilesString": "O=C(Cc1ccc(Cl)c(Cl)c1)N1CCC(c2ccc3nncn3n2)CC1",
    "measuredValue": 9.8
  },
  {
    "smilesString": "O=C(Nc1ccc(Cl)cc1)N1CCN(c2ccc3nncn3n2)CC1",
    "measuredValue": 8.9
  },
  {
    "smilesString": "O=C(Nc1ccc(Cl)c(Cl)c1)N1CCN(c2ccc3nncn3n2)CC1",
    "measuredValue": 12
  }
]

Specify Ratio for O=C(Cc1ccc(Cl)cc1)N1CCN(c2ccc3nncn3n2)CC1 and stop. 3

Specify Ratio for O=C(Nc1ccc(Cl)c(Cl)c1)N1CCC(c2ccc3nncn3n2)CC1 and stop. 6.6

---

target: hERG (KCNH2) (Homo sapiens, UniProt Q12809); assay: Inhibition of human ERG expressed in CHO cells at 100 uM by automated patch clamp electrophysiology assay relative to control; type: cell-based; conditions: CHO cells that express hERG
Sequence (Q12809 whole entry): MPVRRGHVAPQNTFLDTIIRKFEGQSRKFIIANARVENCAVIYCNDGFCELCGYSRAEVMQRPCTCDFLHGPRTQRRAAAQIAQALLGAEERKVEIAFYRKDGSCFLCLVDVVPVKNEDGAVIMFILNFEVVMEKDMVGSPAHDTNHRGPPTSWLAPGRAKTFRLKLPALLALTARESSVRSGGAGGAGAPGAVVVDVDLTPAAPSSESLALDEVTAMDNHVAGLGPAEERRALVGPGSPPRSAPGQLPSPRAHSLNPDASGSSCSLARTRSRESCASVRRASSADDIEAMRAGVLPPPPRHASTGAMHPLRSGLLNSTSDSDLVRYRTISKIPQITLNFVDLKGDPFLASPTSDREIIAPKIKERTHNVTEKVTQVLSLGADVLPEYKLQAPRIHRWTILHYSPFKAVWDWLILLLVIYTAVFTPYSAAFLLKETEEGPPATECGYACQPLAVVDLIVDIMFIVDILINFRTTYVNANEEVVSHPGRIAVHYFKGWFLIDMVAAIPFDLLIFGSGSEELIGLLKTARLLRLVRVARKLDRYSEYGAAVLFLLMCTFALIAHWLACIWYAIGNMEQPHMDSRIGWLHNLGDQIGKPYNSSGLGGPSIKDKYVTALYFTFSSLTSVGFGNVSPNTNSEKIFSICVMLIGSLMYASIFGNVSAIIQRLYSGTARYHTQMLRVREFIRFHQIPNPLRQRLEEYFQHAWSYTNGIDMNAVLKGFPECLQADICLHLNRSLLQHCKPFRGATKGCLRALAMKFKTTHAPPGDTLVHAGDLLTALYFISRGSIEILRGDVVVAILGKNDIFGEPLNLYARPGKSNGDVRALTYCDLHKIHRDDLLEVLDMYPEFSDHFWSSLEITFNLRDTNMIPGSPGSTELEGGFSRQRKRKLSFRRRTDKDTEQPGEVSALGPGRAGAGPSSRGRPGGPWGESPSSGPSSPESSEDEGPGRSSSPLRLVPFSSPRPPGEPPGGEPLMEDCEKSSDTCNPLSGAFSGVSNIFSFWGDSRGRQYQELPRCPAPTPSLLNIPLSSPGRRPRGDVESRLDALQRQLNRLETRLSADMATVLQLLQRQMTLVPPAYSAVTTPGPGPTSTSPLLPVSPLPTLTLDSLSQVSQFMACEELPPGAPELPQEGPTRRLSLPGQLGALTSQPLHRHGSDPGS
measurementType: inhibition at 100 µM (%)
Quick note: give the figure in %, leave out the unit.

[
  {
    "smilesString": "O=C(Nc1ccc(Cl)cc1)N1CCN(c2ccc3nncn3n2)CC1",
    "measuredValue": 88
  }
]

Specify inhibition at 100 µM for O=C(Nc1ccc(Cl)c(Cl)c1)N1CCN(c2ccc3nncn3n2)CC1 and stop. 94

Specify inhibition at 100 µM for O=C(Cc1ccc(Cl)c(Cl)c1)N1CCN(c2ccc3nncn3n2)CC1 and stop. 94

Data provenance is ChEMBL document CHEMBL4808226.
